Target: human mineralocorticoid receptor (MR) (Homo sapiens, UniProt P08235)
Sequence (P08235 734-984 limits assumed): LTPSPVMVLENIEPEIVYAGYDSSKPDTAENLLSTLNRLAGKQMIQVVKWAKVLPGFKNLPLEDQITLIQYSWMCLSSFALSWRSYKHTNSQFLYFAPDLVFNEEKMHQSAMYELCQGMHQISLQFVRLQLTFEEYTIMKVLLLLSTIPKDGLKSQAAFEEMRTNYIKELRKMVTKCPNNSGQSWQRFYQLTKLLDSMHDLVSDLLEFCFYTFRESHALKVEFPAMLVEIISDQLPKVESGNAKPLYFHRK
Assay: Cellular in vitro assay to determine the inhibitory MR activity (GAL4-MR chimera luciferase reporter in CHO K1 cells)
Details: antagonism of aldosterone-stimulated luciferase in CHO K1 cells expressing GAL4-MR chimera
Measured IC50 accompanies every entry in the list below.
I only need the number, in µM, no unit after it.

[[record]]
molecule = "CCOC(=O)C1=C(C)NC(C(F)(F)F)=C(C#N)C1c1cccc2c(=O)cc(C)oc12 (racemic) [Example 29]"
readout_unit = "µM"
observed_result = 0.193

[[record]]
molecule = "CC1=C(C#N)[C@@H](c2cc(F)c(F)c3c(=O)cc(C)oc23)C(C(=O)OC2CCC2)=C(C)N1 (single isomer, unassigned) [Example 18]"
readout_unit = "µM"
observed_result = 0.022

[[record]]
molecule = "CC1=C(C#N)C(c2ccc(F)c3c(=O)cc(C)oc23)C(C(=O)CC2CCC2)=C(C)N1 (stereo not shown) [Example 13]"
readout_unit = "µM"
observed_result = 0.127


Let us move to another entry and its IC50.
Entry under review: CCOC(=O)C1=C(C)NC(C(F)(F)F)=C(C#N)[C@H]1c1cccc2c(=O)cc(C)oc12 (single isomer, unassigned) [Example 30] . Reported IC50?
0.089
